- Target: human cyclin B-CDK1 (Homo sapiens, UniProt P06493)
- Sequence (P06493 whole entry): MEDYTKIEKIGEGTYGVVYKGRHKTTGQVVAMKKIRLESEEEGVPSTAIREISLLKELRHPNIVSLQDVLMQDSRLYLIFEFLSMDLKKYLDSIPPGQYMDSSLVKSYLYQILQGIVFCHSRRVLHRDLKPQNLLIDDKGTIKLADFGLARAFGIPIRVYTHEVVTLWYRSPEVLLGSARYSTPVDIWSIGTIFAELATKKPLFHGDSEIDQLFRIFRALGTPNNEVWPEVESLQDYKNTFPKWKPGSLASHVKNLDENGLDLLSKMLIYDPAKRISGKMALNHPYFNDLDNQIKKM
- Sequence (P14635 whole entry partner): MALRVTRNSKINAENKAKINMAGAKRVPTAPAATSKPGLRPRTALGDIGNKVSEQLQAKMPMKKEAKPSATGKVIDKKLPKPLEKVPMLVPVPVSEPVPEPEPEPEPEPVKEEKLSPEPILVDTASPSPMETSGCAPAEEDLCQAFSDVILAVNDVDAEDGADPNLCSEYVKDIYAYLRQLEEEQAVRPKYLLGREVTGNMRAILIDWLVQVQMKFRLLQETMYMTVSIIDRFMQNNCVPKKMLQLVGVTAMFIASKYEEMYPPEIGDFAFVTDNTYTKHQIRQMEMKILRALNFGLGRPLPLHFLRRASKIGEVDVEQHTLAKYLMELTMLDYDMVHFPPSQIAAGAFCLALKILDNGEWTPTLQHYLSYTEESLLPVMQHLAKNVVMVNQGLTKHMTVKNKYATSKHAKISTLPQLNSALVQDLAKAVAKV
pIC50: −log10 of the molar value.

[
  {
    "Compound": "Nc1nc(Nc2ccc(N3CCC(N4CCCC(O)C4)CC3)cc2)sc1C(=O)c1ccc(F)c(F)c1 (stereo not shown) [Example 75]",
    "pIC50": 5.39
  },
  {
    "Compound": "Nc1nc(Nc2ccc(N3CCC(N4CCCCC4)CC3)cc2)sc1C(=O)c1ccc(Cl)c(Cl)c1 [Example 60]",
    "pIC50": 5.24
  },
  {
    "Compound": "COc1cccc(C(=O)c2sc(Nc3ccc(N4CCC(N(C)C)CC4)cc3)nc2N)c1[N+](=O)[O-] [Example 49]",
    "pIC50": 8.30
  },
  {
    "Compound": "N#Cc1cccc(C(=O)c2sc(Nc3ccc(N4CCC(N5CCCCC5)CC4)cc3)nc2N)c1 [Example 64]",
    "pIC50": 5.89
  },
  {
    "Compound": "Nc1nc(Nc2ccc(N3CCC(N4CCCCC4)CC3)cc2)sc1C(=O)c1cccc(O)c1 [Example 65]",
    "pIC50": 5.84
  },
  {
    "Compound": "Cc1ccc(C(=O)c2sc(Nc3ccc(N4CCC(N5CCCC5)CC4)cc3)nc2N)cc1F [Example 121]",
    "pIC50": 6.15
  },
  {
    "Compound": "Nc1nc(Nc2ccc(N3CCC(N4CCCCC4)CC3)cc2)sc1C(=O)c1ccc(Cl)c([N+](=O)[O-])c1 [Example 62]",
    "pIC50": 5.38
  },
  {
    "Compound": "Nc1nc(Nc2ccc(N3CCC(N4CCCCC4)CC3)cc2)sc1C(=O)c1ccc2c(c1)OCO2 [Example 32]",
    "pIC50": 5.72
  },
  {
    "Compound": "COc1ccc(C(=O)c2sc(Nc3ccc(N4CCC(N5CCOCC5)CC4)cc3)nc2N)cc1F [Example 100]",
    "pIC50": 5.38
  },
  {
    "Compound": "CN(C)C1CCN(c2ccc(Nc3nc(N)c(C(=O)c4ccc(Cl)c(Cl)c4)s3)cc2)CC1 [Example 85]",
    "pIC50": 6.29
  },
  {
    "Compound": "Nc1nc(Nc2ccc(N3CCC(N4CCCCC4)CC3)cc2)sc1C(=O)c1cccc(F)c1 [Example 30]",
    "pIC50": 6.75
  },
  {
    "Compound": "CCc1cccc(C(=O)c2sc(Nc3ccc(N4CCC(N5CCOCC5)CC4)cc3)nc2N)c1 [Example 116]",
    "pIC50": 5.25
  },
  {
    "Compound": "COc1ccc(C(=O)c2sc(Nc3ccc(N4CCC(N5CCCC5)CC4)cc3)nc2N)cc1[N+](=O)[O-] [Example 107]",
    "pIC50": 6.00
  },
  {
    "Compound": "CN(C)C1CCN(c2ccc(Nc3nc(N)c(C(=O)c4cc(F)cc(F)c4)s3)cc2)CC1 [Example 82]",
    "pIC50": 5.37
  },
  {
    "Compound": "CN(C)C1CCN(c2ccc(Nc3nc(N)c(C(=O)c4ccc(O)cc4)s3)cc2)CC1 [Example 46]",
    "pIC50": 5.42
  },
  {
    "Compound": "Nc1nc(Nc2ccc(N3CCC(N4CCCC(O)C4)CC3)cc2)sc1C(=O)c1cc(F)cc(F)c1 (stereo not shown) [Example 73]",
    "pIC50": 5.59
  },
  {
    "Compound": "COc1ccc(C(=O)c2sc(Nc3ccc(N4CCC(N5CCCCC5)CC4)cc3)nc2N)cc1[N+](=O)[O-] [Example 108]",
    "pIC50": 5.89
  },
  {
    "Compound": "CN(C)C1CCN(c2ccc(Nc3nc(N)c(C(=O)c4ccc5c(c4)OCCO5)s3)cc2)CC1 [Example 44]",
    "pIC50": 5.90
  },
  {
    "Compound": "N#Cc1cccc(C(=O)c2sc(Nc3ccc(N4CCC(N5CCCC5)CC4)cc3)nc2N)c1 [Example 72]",
    "pIC50": 6.15
  },
  {
    "Compound": "CCNC1CCN(c2ccc(Nc3nc(N)c(C(=O)c4ccc(OC)c(F)c4)s3)cc2)CC1 [Example 136]",
    "pIC50": 5.81
  },
  {
    "Compound": "CN(C)C1CCN(c2ccc(Nc3nc(N)c(C(=O)c4cccc(C5CC5)c4)s3)cc2)CC1 [Example 120]",
    "pIC50": 5.73
  },
  {
    "Compound": "Nc1nc(Nc2ccc(N3CCC(N4CCCC(O)C4)CC3)cc2)sc1C(=O)c1ccc(Cl)c([N+](=O)[O-])c1 (stereo not shown) [Example 78]",
    "pIC50": 5.54
  },
  {
    "Compound": "Nc1nc(Nc2ccc(N3CCC(N4CCCC(O)C4)CC3)cc2)sc1C(=O)c1ccc2c(c1)OCO2 (stereo not shown) [Example 37]",
    "pIC50": 5.79
  },
  {
    "Compound": "CCOc1cccc(C(=O)c2sc(Nc3ccc(N4CCC(N5CCCC5)CC4)cc3)nc2N)c1 [Example 118]",
    "pIC50": 5.82
  },
  {
    "Compound": "CN(C)C1CCN(c2ccc(Nc3nc(N)c(C(=O)c4cccc(C#N)c4)s3)cc2)CC1 [Example 88]",
    "pIC50": 6.03
  },
  {
    "Compound": "Nc1nc(Nc2ccc(N3CCC(N4CCOCC4)CC3)cc2)sc1C(=O)c1cccc(F)c1 [Example 99]",
    "pIC50": 6.35
  },
  {
    "Compound": "CCNC1CCN(c2ccc(Nc3nc(N)c(C(=O)c4cccc(OC)c4)s3)cc2)CC1 [Example 135]",
    "pIC50": 5.94
  },
  {
    "Compound": "Nc1nc(Nc2ccc(N3CCC(N4CCCC4)CC3)cc2)sc1C(=O)c1cccc([N+](=O)[O-])c1 [Example 90]",
    "pIC50": 6.24
  },
  {
    "Compound": "Nc1nc(Nc2ccc(N3CCC(N4CCCC(O)C4)CC3)cc2)sc1C(=O)c1cccc(F)c1 (stereo not shown) [Example 35]",
    "pIC50": 6.13
  },
  {
    "Compound": "Nc1nc(Nc2ccc(N3CCC(N4CCCC4)CC3)cc2)sc1C(=O)c1ccc(F)c(F)c1 [Example 68]",
    "pIC50": 5.41
  },
  {
    "Compound": "COc1ccc(C(=O)c2sc(Nc3ccc(N4CCC(N(C)C)CC4)cc3)nc2N)cc1[N+](=O)[O-] [Example 113]",
    "pIC50": 6.03
  }
]
